assay: NCI Yeast Anticancer Drug Screen. Data for the sgs1 mgt1 strain (AID 161); conditions: S. cerevisiae sgs1 mgt1 strain, at 50.0 µM (retest, dose inferred, filed as 5.0), hits give high values
Compounds without any hit were thinned out: in the full panel of roughly 79,000, 15% have a hit.
So basically: growth inhibition at 80% or higher? That is t. Lower than 80%? That is f.

Some solved entries appear below for comparison.
- MOLECULE: "Cc1cc(O)c(C=NC(=S)C(N)=S)c(=O)o1"
  CATEGORY_LABEL: "f"
- MOLECULE: "COC(=O)CCc1c(Cc2ccc[nH]2)[nH]c(C(=O)OCc2ccccc2)c1C"
  CATEGORY_LABEL: "t"
- MOLECULE: "NC(=O)C1C(=O)c2cccc3c2C1(Br)C(Br)CCC3 (configuration not stated)"
  CATEGORY_LABEL: "t"

-- ask Test whether the molecule c1ccc2cc3c(ccc4cccc[n+]43)cc2c1 records growth inhibition of 80% or higher.
-- reply f

-- ask Test whether the molecule S=C(Nc1ccccc1)N(Cc1ccccc1)c1ccccc1 records growth inhibition of 80% or higher.
-- reply f

-- ask Test whether the molecule CCNCC(O)COc1ccc2c(c1)[n+]([O-])nc(N)[n+]2[O-] (configuration not stated) records growth inhibition of 80% or higher.
-- reply f

-- ask Test whether the molecule COc1ccc(/C(C#N)=C/c2ccncc2)cc1 records growth inhibition of 80% or higher.
-- reply f

-- ask Test whether the molecule COC(=O)C(=Cc1c[nH]c2ccccc12)C(=O)OC records growth inhibition of 80% or higher.
-- reply f
